Recorded GI50 for the following molecules
Tested on: CAKI-1 renal
PROTOCOL_DESCRIPTION: NCI tumour cell line growth inhibition, 48 h

Below are worked cases with known answers.
INSERT INTO results (molecule, recorded_endpoint, measured) VALUES
  ('COc1ccc(CN2C(=O)/C(=C\C(=O)c3ccc(OCCN4CCCC4)cc3)c3ccccc32)cc1', 'GI50', '11.8 µM'),
  ('C[C@@H]1CC[C@H]2[C@@H](C)C(OC/C=C/COC3O[C@@H]4O[C@@]5(C)CC[C@H]6[C@H](C)CC[C@@H]([C@H]3C)[C@@]46OO5)O[C@@H]3O[C@@]4(C)CC[C@@H]1[C@]32OO4 (some centres not stated)', 'GI50', '0.046 µM'),
  ('C=C1C(=O)O[C@@H]2C[C@@H]1CC[C@]1(C)O[C@H]1CC/C(C)=C/CC[C@@]2(C)O', 'GI50', '18.7 µM'),
  ('CCC[CH2][Sn]1([CH2]CCC)[O]C(=O)CN=C(C)c2ccccc2[O]1', 'GI50', '0.534 µM'),
  ('CC[O-].CC[O-].COc1ccc(C(=O)[CH-]C(C)=O)cc1OC.COc1ccc(C(=O)[CH-]C(C)=O)cc1OC.[Ti+4]', 'GI50', '33 µM'),
  ('O=C(NCCCl)NCCN1c2nc3ccccc3cc2Sc2cc3ccccc3nc21', 'GI50', '14.7 µM');

Request: Recorded GI50 for CCOC(=O)Nc1ccc2nc(N3CCCCCC3)sc2c1 with CAKI-1 renal, please?
Response: 2.2 µM
